Test system: HOP-62 NSCLC
Test Protocol: NCI tumour cell line growth inhibition, 48 h
Assay Metric: TGI

# example entries with known answers
CCN(CC)c1ccc(N=Nc2ccc(-c3nc4cccnc4o3)cc2)cc1 ... > 100 µM
CSC(=NC1=NC(C(F)(F)F)(C(F)(F)F)N=C(c2ccccc2)O1)SC ... 59 µM
CC1=C2C(O)C(C(C)CO)C(O)CC2(C)C(O)CC1 (stereo unspecified) ... > 100 µM
CCOc1ccc(/C=C/C(=O)c2ccccc2)cc1 ... 35.4 µM
COS(=O)c1cc(Cl)cc(Cl)c1O (stereo unspecified) ... > 100 µM
Nc1c(C(=O)c2ccccc2)sc2nc(-c3cccs3)ccc12 ... 17.8 µM

Identify measured TGI associated with "CCCCSc1n/c(=C\c2ccc(N(C)C)cc2)c2nnnn12" > 100 µM

Annotate the molecule COC(=O)C(C)Sc1nc2cc(Cl)ccc2s1 (stereo unspecified) with its measured TGI. > 100 µM

---

Tested on: SF-268 CNS
Test Protocol: NCI tumour cell line growth inhibition, 48 h
Assay Metric: TGI

Example entries begin here.
Cc1[nH]c(-c2ccccc2)c(-c2ccc(Cl)cc2)c1C(=O)ONC(=O)c1ccccc1 ... 6.9 µM
CCOc1ccccc1NC(=O)/C=C1\NC(=O)CS1 ... > 100 µM

Now, please, on to the next compound.
Fill: TGI (SF-268 CNS) for this compound Cc1cc2nc3c(C(OC4OC(CO)C(O)C(O)C4O)C(O)CO)nn(-c4ccccc4)c3nc2cc1C (configuration not stated) > 100 µM

---

Test system: OVCAR-8 ovarian
Test Protocol: NCI tumour cell line growth inhibition, 48 h
# TGI per entry
Numbers only; they are read as µM.

As a guide, the following entries are already answered.
C[CH2][Sn]1([CH2]C)[O]C(=O)[O][Sn]([CH2]C)([CH2]C)[O]1 ... 20.4
COc1cc(OC)c(/C=C/c2ccc3ccccc3[n+]2C)c(OC)c1 ... 6.48

// moving on: another record for TGI
In one line, give reported TGI of the entry O=C(O)C1CCc2ccc3ccccc3c2C1c1cccc2ccccc12 (stereo unspecified) . 52.1

---

Tested on: HOP-92 NSCLC
Test Protocol: NCI tumour cell line growth inhibition, 48 h
Assay Metric: TGI (µM)
Write down the numeric answer in µM and omit the unit.

CSC(=NC1=NC(C(F)(F)F)(C(F)(F)F)N=C(c2ccccc2)O1)SC ... 49.2

Indicate the recorded TGI value for this compound: O=C1[C@@H]2Cc3c([nH]c4ccccc34)C(C3CCCCC3)N2C(=O)[C@@H]2CCCN12 (some centres not stated) 76.6

Provide TGI value for the following compound: CN1CCN(CCSC2Cc3cc(Cl)ccc3Sc3ccccc32)CC1 (configuration not stated) 12.4

Indicate the recorded TGI value for this compound: O=C1C(Br)=C[C@H]2C3C=CC(Br)(C3=O)[C@@H]12 (some centres not stated) 29.7

Give TGI for "Cc1c(CCCl)c(=O)n2c([nH]c3ccccc32)c1C#N" 2.82

Name the recorded TGI of the compound listed here: "N#Cc1c2c(c(N3CCOCC3)n3c1nc1ccccc13)CCCC2" 38.8

Hello, please tell me recorded TGI for this one: "Cc1cc2nc3c(=O)n(C)c(=O)nc-3n(-c3ccc(Cl)cc3)c2cc1C" 34

Give reported TGI value for "CC(=O)Oc1cc(C)ccc1[C@]1(C)CC[C@H](C)/C1=C\Br" 12.9

Could you please provide reported TGI for CCCCCCCCCCCCCCCCNc1nc(=O)n(C2CC(O)C(CO)O2)cc1F (configuration not stated) ? Thanks! 25.1

Look up and report measured TGI for this entry: "CN(C)CCNc1nc2ccccc2c2c1c1c(n2Cc2ccccc2)-c2ccccc2C1=O" 21.2

Look up and state reported TGI for COC1=CC23C=CC1[C@@H](c1ccccc1)C2=C(C)C(=O)N3C(=O)NC1CCCCC1 (some centres not stated) 47.5

---

System: A549 NSCLC
Test Protocol: NCI tumour cell line growth inhibition, 48 h
Assay Metric: TGI (µM)
Write the answer as a number in µM, unit excluded.

C=CCCCCCCCCCCCC1CCC(CC)N1 (stereo unspecified) ... 24.8
CCOC(=O)CCC(=O)C1c2cccc(O)c2C(=O)c2c(O)cccc21 ... 2.18
COc1cc(OC)c(/C=C/c2ccc3ccccc3[n+]2C)c(OC)c1 ... 13.9
COc1cc(OC2OC(C)C(O)C(O)C2O)cc2oc(-c3ccc(O)cc3)c(CC=C(C)C)c(=O)c12 (stereo unspecified) ... 68.5

Moving on to the next compound.
Give me measured TGI, please, for this compound: "CCN(CC)CCNc1c(OC)cc(C)c2sc3ccccc3c(=O)c12" 18

---

Measured TGI values are reported for all entries that follow.
Test system: EKVX NSCLC
Test Protocol: NCI tumour cell line growth inhibition, 48 h
*1 amine or outer side, *2 acyl side, *3 side chain or, on linkers, in order; H or OH if unused. Where a SMILES comes first, the peptide text is derived from it. Bridges are numbered along the chain shown (N, C = ends). [ ]: non-standard residue; d: D form. ξ: configuration not given here. X4 = CCC(C)C(N[*:1])C(O)CC(=O)O[C@H](C(=O)C(C)C(=O)[*:2])C(C)C; NMeY = CN[C@@H](Cc1ccc(O)cc1)C(=O)O; ξNMeL = CNC(CC(C)C)C(=O)O; ξT = CC(O)C(N)C(=O)O

Record excerpt, results attached:
NC(=O)CC(Nc1ncc2c(n1)-c1ccccc1OC2)C(=O)O (stereo not given) ... > 100 µM
O=C(C(O)c1cn(Cc2ccccc2)c2ccccc12)N1CCCCC1 (stereo not given) ... > 100 µM
CN1C2CC(=O)CC1[C@@H]1OC(c3ccccc3)O[C@H]21 (stereo not given in full) ... > 100 µM
COc1ccc2c(c1)CCc1c-2n(CCN(C)C)c2ccc(OC)cc12 ... > 100 µM

Okay, next one:
Supply TGI value. Item: CCC(C)C1NC(=O)C(NC(=O)C(CC(C)C)N(C)C(=O)[C@@H]2CCCN2)C(C)OC(=O)[C@H](Cc2ccc(OC)cc2)N(C)C(=O)[C@@H]2CCCN2C(=O)[C@H](CC(C)C)NC(=O)C(C)C(=O)[C@H](C(C)C)OC(=O)CC1O (stereo not given in full) (H-P[ξNMeL][ξT][X4]LP[NMeY](Me); ester 3-C) 0.0474 µM

---

Parameter GI50: see the listing below.
Tested on: HCT-116 colon
Test Protocol: NCI tumour cell line growth inhibition, 48 h

Worked examples follow.
O=C1c2cc(Br)ccc2-c2c1c1ccc([N+](=O)[O-])cc1c(=O)n2CCCCl ... 1.05 µM
Oc1ccc(Br)cc1Sc1cc(Br)ccc1O ... 6 µM
S=C(Nc1ccc(-c2nc3ccccc3[nH]2)cc1)NC1CCCCC1 ... 20.7 µM
COC(=O)CCC/C=C\C[C@H]1C=CC(=O)/C1=C/C[C@@H](O)CCc1cccc(C(F)(F)F)c1 ... 1.78 µM

Could you now look at the following molecule, please?
Please indicate GI50 recorded for "CCCCNc1nc(NC(C)(C)C)nc(NC(C)(C)C)n1" 2.44 µM

---

Tested on: SK-MEL-5 melanoma
Test Protocol: NCI tumour cell line growth inhibition, 48 h
Response key: rule met means TGI >= 30 µM; rule not met means TGI < 30 µM.

Examples with answers:
CC1=CSC2=NC(c3ccc(Cl)c(Cl)c3)=CC(c3ccc(Cl)cc3)N12 (stereo not drawn) ... rule met
O=C1C=CC(=O)c2ncccc21 ... rule not met
N#CCCc1nc2ccc(Br)cc2c(=O)n1CCO ... rule met
CCOC(=O)C(O)(NC(C)=O)C(F)(F)F (stereo not drawn) ... rule met

Please tell me: is the compound "O=C1C=C(c2c(O)ccc3ccccc23)c2ccccc2C1=O" at or over 30 µM in terms of TGI? rule not met

Evaluate "COc1cc(/C=C/c2cc(C(F)(F)F)[nH]c(=O)n2)ccc1OCc1ccccc1F" : TGI at minimum 30 µM? rule not met

# check: TGI of "N#Cc1c2c(c(N3CCOCC3)n3c1nc1ccccc13)CCCC2" is greater than or equal to 30 µM rule met

Item Cc1ccc(O)c(C2=NNC(c3cccc(Br)c3)C2)c1 (stereo not drawn) with TGI of 30 µM or above? rule met

Decide: is the reported value of TGI for "COC(=O)c1c(-c2ccccc2)cc2c3cc(-c4ccccc4)c(C(=O)OC)n3c3ccccc3n12" equal to or greater than 30 µM? rule met

---

Test system: 786-0 renal
Test Protocol: NCI tumour cell line growth inhibition, 48 h
Assay Metric: TGI

CCOC(=O)c1sc2c(c1OC(=O)c1ccccc1)c(=O)n(-c1ccccc1)c(=S)n2-c1ccccc1 ... 29.4 µM
O=C(O)c1ccccc1/C=N\NC1=NCCCCN1 ... > 100 µM

Give TGI for this entry on 786-0 renal: "Oc1ccc(N=Nc2ccc(Cl)cc2)cc1" 31.5 µM

Provide TGI, recorded with 786-0 renal, of CC(C)=CC(C(O)c1ccccc1)S(=O)(=O)c1nccn1C (stereo unspecified) > 100 µM

Fill: TGI (786-0 renal) for this compound "O=c1cc(-c2ccccc2)[nH]c2cccc(S)c12" > 100 µM

Recall the reported TGI of NC(=O)CC(Nc1ncc2c(n1)-c1ccccc1OC2)C(=O)O (stereo unspecified) when tested on 786-0 renal. > 100 µM

Fetch value of TGI on 786-0 renal for NC(CCCCNC(=O)OCc1ccccc1)C(=O)NC(CCCCNC(=O)OCc1ccccc1)C(=O)ON1C(=O)CCC1=O (stereo unspecified) . > 100 µM

Write down the reported TGI (system: 786-0 renal) of Cc1nn(C(=O)c2ccccc2O)c2c1C(c1ccccc1)SC(N)=N2 (stereo unspecified) > 10 µM

Please indicate recorded TGI of "CC[N+](C)(CC)CCN1C(=O)c2ccccc2S1(=O)=O" measured with 786-0 renal. > 100 µM

Answer with TGI of CCOC(=O)C1=C(C)NC(=S)NC1c1cccc(O)c1 (stereo unspecified) measured for 786-0 renal. > 100 µM
